Target or test system: human PPARgamma (Homo sapiens, UniProt P37231)
Construct: amino acids I152-Y475
Sequence (P37231 with tags, fused parts or gaps isoform P37231-2 limits assumed): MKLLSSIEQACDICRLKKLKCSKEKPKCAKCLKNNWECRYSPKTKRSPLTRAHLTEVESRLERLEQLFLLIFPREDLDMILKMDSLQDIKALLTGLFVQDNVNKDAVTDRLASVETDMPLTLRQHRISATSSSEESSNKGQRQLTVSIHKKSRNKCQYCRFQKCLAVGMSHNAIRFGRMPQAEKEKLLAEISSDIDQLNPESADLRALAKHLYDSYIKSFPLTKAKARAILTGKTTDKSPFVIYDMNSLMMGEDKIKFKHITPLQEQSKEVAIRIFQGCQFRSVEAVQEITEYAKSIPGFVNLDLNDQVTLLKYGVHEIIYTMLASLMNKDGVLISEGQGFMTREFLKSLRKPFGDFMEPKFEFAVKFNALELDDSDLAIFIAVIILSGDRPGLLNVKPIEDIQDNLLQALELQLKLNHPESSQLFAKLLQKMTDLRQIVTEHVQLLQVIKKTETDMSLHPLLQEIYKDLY
Run description: cellular PPARgamma assay (transiently transfected HEK cells, luciferase reporter)
Condition context: GAL4-humanPPARgammaLBD
Result type: EC50 (nM)
Your answer should be a plain number; it is taken to be in nM.

Measured EC50 (human PPARgamma (Homo sapiens, UniProt P37231)), entry CCOc1cc(C(F)(F)F)ccc1C(=O)N[C@@H]1CCC[C@H]1c1ccc(S(=O)(=O)Nc2nnc(C(C)C)s2)cc1 (relative stereo) : 430

Measured EC50 (human PPARgamma (Homo sapiens, UniProt P37231)), entry CCOc1cc(C(F)(F)F)ccc1C(=O)N[C@@H]1CCC[C@@H]1c1ccc(S(=O)(=O)Nc2nnc(C(C)C)s2)cc1 (relative stereo) : 230

Measured EC50 (human PPARgamma (Homo sapiens, UniProt P37231)), entry "CCOc1cc(C(F)(F)F)ccc1C(=O)NCC1(c2ccc(S(=O)(=O)Nc3nnc(C(C)C)s3)cc2)CCCC1" : 7
